Listing: ΔTm at 10 µM of selected compounds
- MEASUREMENT_TARGET: LIMK2KD (Homo sapiens, UniProt P53671)
- Construct: The cDNA coding for LIMK2 residues 330 to 632 was PCR amplified; His6 (N, cleaved yes); made in house; host or cells: baculovirus; Sf9 for virus, TriEx insect cells for expression
- Sequence (P53671 330-632): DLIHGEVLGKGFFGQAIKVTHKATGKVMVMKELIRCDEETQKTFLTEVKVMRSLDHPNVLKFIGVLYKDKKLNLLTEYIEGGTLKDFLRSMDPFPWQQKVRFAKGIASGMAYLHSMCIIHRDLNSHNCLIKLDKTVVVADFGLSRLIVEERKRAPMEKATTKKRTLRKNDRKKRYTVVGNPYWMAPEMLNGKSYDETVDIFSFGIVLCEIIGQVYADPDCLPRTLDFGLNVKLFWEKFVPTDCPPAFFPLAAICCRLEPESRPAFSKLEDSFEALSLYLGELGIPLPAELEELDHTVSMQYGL
- ASSAY_NOTES: Differential (dynamic) scanning fluorimetry (DSF) assay, LIMK2KD
- Assay type: binding
- CONDITION_SUMMARY: LIMK2KD, compound 10 µM, single shot; read-out: TM Shift LIMK2 (K)
Structures can show the parent of a compound that is named as a salt.

[
  {
    "COMPOUND": "CN1CCN(C2CCN(C(=O)Nc3cc(Oc4ccc(NC(=O)C5(C(=O)Nc6ccc(F)cc6)CC5)c(F)c4)ccn3)CC2)CC1 [Golvatinib (E7050), Golvatinib]",
    "ΔTm at 10 µM / °C": 1
  },
  {
    "COMPOUND": "CC(=O)c1c(C)c2cnc(Nc3ccc(N4CCNCC4)cn3)nc2n(C2CCCC2)c1=O [Palbociclib (PD-0332991) HCl, Palbociclib]",
    "ΔTm at 10 µM / °C": 0.2
  },
  {
    "COMPOUND": "COC(=O)c1ccc2c(c1)NC(=O)/C2=C(\\Nc1ccc(N(C)C(=O)CN2CCN(C)CC2)cc1)c1ccccc1",
    "ΔTm at 10 µM / °C": 0.3
  },
  {
    "COMPOUND": "C[C@@H]1CCN(C(=O)CC#N)C[C@@H]1N(C)c1ncnc2[nH]ccc12 [Tofacitinib (CP-690550) Citrate, Tofacitinib]",
    "ΔTm at 10 µM / °C": 3.1
  },
  {
    "COMPOUND": "COc1cc(Nc2ncc(F)c(Nc3ccc4c(n3)NC(=O)C(C)(C)O4)n2)cc(OC)c1OC",
    "ΔTm at 10 µM / °C": 3
  },
  {
    "COMPOUND": "OCCn1cc(-c2ccc3c(c2)CC/C3=N\\O)c(-c2ccncc2)n1",
    "ΔTm at 10 µM / °C": 0
  },
  {
    "COMPOUND": "Cn1cc(C2=C(c3ccc(Cl)cc3Cl)C(=O)NC2=O)c2ccccc21",
    "ΔTm at 10 µM / °C": 1.3
  }
]

====

Listing: ΔTm at 10 µM of selected compounds
- MEASUREMENT_TARGET: LIMK2KD (Homo sapiens)
- Construct: The cDNA coding for LIMK2 residues 330 to 632 was PCR amplified; His6 (N, cleaved yes); made in house; host or cells: baculovirus; Sf9 for virus, TriEx insect cells for expression
- ASSAY_NOTES: Differential (dynamic) scanning fluorimetry (DSF) assay, LIMK2KD
- Format: binding
- CONDITION_SUMMARY: LIMK2KD, compound 10 µM, single shot; read-out: TM Shift LIMK2 (K)
ENDPOINT_LABEL: ΔTm at 10 µM (°C)

[
  {
    "COMPOUND": "CO[C@H]1C[C@@H]2CC[C@@H](C)[C@@](O)(O2)C(=O)C(=O)N2CCCC[C@H]2C(=O)O[C@H]([C@H](C)C[C@@H]2CC[C@@H](OC(=O)C(C)(CO)CO)[C@H](OC)C2)CC(=O)[C@H](C)/C=C(\\C)[C@@H](O)[C@@H](OC)C(=O)[C@H](C)C[C@H](C)/C=C/C=C/C=C/1C [Temsirolimus (CCI-779, NSC 683864), Temsirolimus]",
    "MEASUREMENT_TARGET": "LIMK2KD (Homo sapiens)",
    "DATA_VALUE": 0
  },
  {
    "COMPOUND": "Cc1c(CN2CCN(C(=O)[C@H](C)O)CC2)sc2c(N3CCOCC3)nc(-c3cnc(N)nc3)nc12 [Apitolisib]",
    "MEASUREMENT_TARGET": "LIMK2KD (Homo sapiens)",
    "DATA_VALUE": 0.6
  },
  {
    "COMPOUND": "CO[C@H]1C[C@@H]2CC[C@@H](C)[C@@](O)(O2)C(=O)C(=O)N2CCCC[C@H]2C(=O)O[C@H]([C@H](C)C[C@@H]2CC[C@@H](O)[C@H](OC)C2)CC(=O)[C@H](C)/C=C(\\C)[C@@H](O)[C@@H](OC)C(=O)[C@H](C)C[C@H](C)/C=C/C=C/C=C/1C [Rapamycin (Sirolimus), Rapamycin]",
    "MEASUREMENT_TARGET": "LIMK2KD (Homo sapiens)",
    "DATA_VALUE": 0
  },
  {
    "COMPOUND": "CNCc1ccc(-c2cc(-c3nc(-c4ccc(S(=O)(=O)C(C)C)cc4)cnc3N)on2)cc1 [VE-822]",
    "MEASUREMENT_TARGET": "LIMK2KD (Homo sapiens)",
    "DATA_VALUE": 0.5
  },
  {
    "COMPOUND": "CN(C)C[C@@H]1CCn2cc(c3ccccc32)C2=C(C(=O)NC2=O)c2cn(c3ccccc23)CCO1 [Ruboxistaurin]",
    "MEASUREMENT_TARGET": "LIMK2KD (Homo sapiens)",
    "DATA_VALUE": 0.4
  },
  {
    "COMPOUND": "COc1cc2ncnc(Oc3cccc(NC(=O)Nc4cc(C(C)(C)C(F)(F)F)on4)c3)c2cc1OC [CEP-32496]",
    "MEASUREMENT_TARGET": "LIMK2KD (Homo sapiens)",
    "DATA_VALUE": -0.1
  },
  {
    "COMPOUND": "CC(C)(C)Cn1c(N)nc2ccc(-c3[nH]c(C(C)(C)C)nc3-c3ccc(F)cc3)nc21 [Ralimetinib]",
    "MEASUREMENT_TARGET": "LIMK2KD (Homo sapiens)",
    "DATA_VALUE": 3.1
  },
  {
    "COMPOUND": "COc1cc2c(N3CCN(C(=O)Nc4ccc(OC(C)C)cc4)CC3)ncnc2cc1OCCCN1CCCCC1 [Tandutinib (MLN518), Tandutinib]",
    "MEASUREMENT_TARGET": "LIMK2KD (Homo sapiens)",
    "DATA_VALUE": 0
  },
  {
    "COMPOUND": "COc1ccc(-c2ccc3ncc4c(c3c2)n(-c2ccc(N3CCNCC3)c(C(F)(F)F)c2)c(=O)n4C)cn1 [BGT226 (NVP-BGT226)]",
    "MEASUREMENT_TARGET": "LIMK2KD (Homo sapiens)",
    "DATA_VALUE": -0.7
  },
  {
    "COMPOUND": "Cc1ccc(Nc2nccc(N(C)c3ccc4c(C)n(C)nc4c3)n2)cc1S(N)(=O)=O [Pazopanib]",
    "MEASUREMENT_TARGET": "LIMK2KD (Homo sapiens)",
    "DATA_VALUE": 6.2
  },
  {
    "COMPOUND": "COC[C@H]1OC(=O)c2coc3c2[C@@]1(C)C1=C(C3=O)[C@@H]2CCC(=O)[C@@]2(C)C[C@H]1OC(C)=O [Wortmannin]",
    "MEASUREMENT_TARGET": "LIMK2KD (Homo sapiens)",
    "DATA_VALUE": 0.1
  },
  {
    "COMPOUND": "C=CC(=O)Nc1cccc(Oc2nc(Nc3ccc(N4CCN(C)CC4)cc3OC)ncc2Cl)c1 [WZ4002]",
    "MEASUREMENT_TARGET": "LIMK2KD (Homo sapiens)",
    "DATA_VALUE": 1.8
  },
  {
    "COMPOUND": "CCc1cnn2c(NCc3ccc[n+]([O-])c3)cc(N3CCCC[C@H]3CCO)nc12 [Dinaciclib (SCH727965), Dinaciclib]",
    "MEASUREMENT_TARGET": "LIMK2KD (Homo sapiens)",
    "DATA_VALUE": 0.6
  },
  {
    "COMPOUND": "CCn1c(C(=O)N(C2CC2)C2CC2)cc2c3c(ncn3C)c(Nc3cc(C)n(C)n3)nc21 [BMS-911543]",
    "MEASUREMENT_TARGET": "LIMK2KD (Homo sapiens)",
    "DATA_VALUE": 0.3
  },
  {
    "COMPOUND": "N#CC[C@@H](C1CCCC1)n1cc(-c2ncnc3[nH]ccc23)cn1 [S-Ruxolitinib (INCB018424), S-Ruxolitinib]",
    "MEASUREMENT_TARGET": "LIMK2KD (Homo sapiens)",
    "DATA_VALUE": -0.7
  },
  {
    "COMPOUND": "C=CC(=O)Nc1cc2c(Nc3ccc(F)c(Cl)c3)ncnc2cc1OCCCN1CCOCC1 [Canertinib (CI-1033), Canertinib]",
    "MEASUREMENT_TARGET": "LIMK2KD (Homo sapiens)",
    "DATA_VALUE": 0.5
  },
  {
    "COMPOUND": "Cn1c(=O)c(F)c(Nc2ccc(I)cc2F)c2c(=O)n(C[C@@H](O)CO)cnc21 [TAK-733]",
    "MEASUREMENT_TARGET": "LIMK2KD (Homo sapiens)",
    "DATA_VALUE": 0.3
  },
  {
    "COMPOUND": "COc1ccc(-c2ccc3c(N4CCOCC4)nc(N4C[C@@H](C)O[C@@H](C)C4)nc3n2)cc1CO [KU-0063794]",
    "MEASUREMENT_TARGET": "LIMK2KD (Homo sapiens)",
    "DATA_VALUE": 2
  },
  {
    "COMPOUND": "COc1ccc(-c2ccc3c(N4CCOC[C@@H]4C)nc(N4CCOC[C@@H]4C)nc3n2)cc1CO [AZD8055]",
    "MEASUREMENT_TARGET": "LIMK2KD (Homo sapiens)",
    "DATA_VALUE": 0.8
  },
  {
    "COMPOUND": "Cc1nc(NC(=O)N2CCC[C@H]2C(N)=O)sc1-c1ccnc(C(C)(C)C(F)(F)F)c1 [BYL719]",
    "MEASUREMENT_TARGET": "LIMK2KD (Homo sapiens)",
    "DATA_VALUE": -0.2
  },
  {
    "COMPOUND": "Cc1cnc(Nc2ccc(OCCN3CCCC3)cc2)nc1Nc1cccc(S(=O)(=O)NC(C)(C)C)c1 [Fedratinib]",
    "MEASUREMENT_TARGET": "LIMK2KD (Homo sapiens)",
    "DATA_VALUE": 1.4
  },
  {
    "COMPOUND": "O=C(Nc1ccc(-c2ccnc(Nc3ccc(N4CCOCC4)cc3)n2)cc1)C1CCCN1 (stereo not drawn) [XL019]",
    "MEASUREMENT_TARGET": "LIMK2KD (Homo sapiens)",
    "DATA_VALUE": 1.6
  },
  {
    "COMPOUND": "O=C(Nc1c[nH]nc1-c1nc2ccc(CN3CCOCC3)cc2[nH]1)NC1CC1 [AT9283]",
    "MEASUREMENT_TARGET": "LIMK2KD (Homo sapiens)",
    "DATA_VALUE": 4
  },
  {
    "COMPOUND": "CCS(=O)(=O)c1cccc(-c2cc(C(=O)NC3CCN(C)CC3)c(C)c3[nH]c4ncc(C)cc4c23)c1 [TAK-901]",
    "MEASUREMENT_TARGET": "LIMK2KD (Homo sapiens)",
    "DATA_VALUE": 0.3
  },
  {
    "COMPOUND": "O=C(NC1CCNCC1)c1[nH]ncc1NC(=O)c1c(Cl)cccc1Cl [AT7519]",
    "MEASUREMENT_TARGET": "LIMK2KD (Homo sapiens)",
    "DATA_VALUE": 1.3
  },
  {
    "COMPOUND": "CCS(=O)(=O)N1CC(CC#N)(n2cc(-c3ncnc4[nH]ccc34)cn2)C1 [Baricitinib]",
    "MEASUREMENT_TARGET": "LIMK2KD (Homo sapiens)",
    "DATA_VALUE": 1
  },
  {
    "COMPOUND": "CCc1cc2c(cc1N1CCC(N3CCOCC3)CC1)C(C)(C)c1[nH]c3cc(C#N)ccc3c1C2=O [Alectinib (CH5424802), Alectinib]",
    "MEASUREMENT_TARGET": "LIMK2KD (Homo sapiens)",
    "DATA_VALUE": 1.1
  }
]

Data provenance is paper PMC6835155.
